Attribution: paper PMC8907375

Give MIC100 (complete growth inhibition) for every item shown.
# Tested on: B. cinerea (isolated from grapes)
# protocolText: In vitro antifungal activity, broth microdilution (MIC100)
# Type: cell-based, Botrytis cinerea
# experimentalConditions: Botrytis cinerea; B. cinerea; 22 °C, 72 h; total growth inhibition; read-out: Fungicidal activity MIC100, BC

Example results:
CC(C1CC1)C(O)(Cn1cncn1)c1ccc(-c2ccccc2)cc1 (centres unmarked)	25 µg/mL
CC(C1CC1)C(O)(Cn1cncn1)c1ccc(-c2ccc(F)cc2)cc1 (centres unmarked)	12.5 µg/mL
CC(C1CC1)C(O)(Cn1cncn1)c1ccc(-c2ccc([N+](=O)[O-])cc2)cc1 (centres unmarked)	≥ 100 µg/mL

For each entry beneath this line, provide reported MIC100 (complete growth inhibition).
1. CC(C)(C)C(=O)C(Oc1ccc(-c2ccc(F)cc2)cc1)n1cncn1 (centres unmarked)
2. COc1ccc(-c2ccc(C(O)(Cn3cncn3)C(C)C3CC3)cc2)cc1 (centres unmarked)
3. C[C@@H](c1ncncc1F)[C@](O)(Cn1cncn1)c1ccc(F)cc1F [VOR, voriconazole, reference compound]
4. CC(C)(C)C(=O)C(Oc1ccc(Cl)cc1)n1cncn1 (centres unmarked) [TDM, reference compound]
5. CC(C1CC1)C(O)(Cn1cncn1)c1ccc(-c2ccc3ccccc3c2)cc1 (centres unmarked)

Response:
1: ≥ 100 µg/mL; 2: ≥ 100 µg/mL; 3: < 0.75 µg/mL; 4: 80 µg/mL; 5: ≥ 100 µg/mL

====

# Test system: A. ustus (PN-S4)
# protocolText: In vitro antifungal activity, broth microdilution (MIC100)
# Format: cell-based, Aspergillus ustus
# experimentalConditions: Aspergillus ustus, 30 °C, 48 h, total growth inhibition, read-out: Fungicidal activity MIC100, AU
observedProperty: log10 of MIC100 (complete growth inhibition) (log10 of the value in µg/mL)
Answers are given as log10 of MIC100 (complete growth inhibition) in µg/mL.

List log10 of MIC100 (complete growth inhibition) for every entry below, keeping the order given.
1. CC(C1CC1)C(O)(Cn1cncn1)c1ccc(-c2ccc3ccccc3c2)cc1 (stereo not drawn)
2. CC(C)(C)C(=O)C(Oc1ccc(Cl)cc1)n1cncn1 (stereo not drawn) [TDM, reference compound]
3. CC(C)(C)C(=O)C(Oc1ccc(-c2ccccc2)cc1)n1cncn1 (stereo not drawn)
4. CC(C1CC1)C(O)(Cn1cncn1)c1ccc(-c2ccc(F)cc2)cc1 (stereo not drawn)
5. C[C@@H](c1ncncc1F)[C@](O)(Cn1cncn1)c1ccc(F)cc1F [VOR, voriconazole, reference compound]
6. CC(C1CC1)C(O)(Cn1cncn1)c1ccc(-c2ccccc2)cc1 (stereo not drawn)

Response:
[0.80, 1.90, 1.70, 1.15, 0.10, 0.80]

====

# Test system: Fusarium oxysporum (M15-Pa)
# protocolText: In vitro antifungal activity, broth microdilution (MIC100)
# Assay type: cell-based
# experimentalConditions: Fusarium oxysporum; F. oxysporum; 30 °C, 48 h; total growth inhibition; read-out: Fungicidal activity MIC100, F
observedProperty: MIC100 (minimum concentration for complete growth inhibition)

Completed entries (count: 5):
C[C@@H](c1ncncc1F)[C@](O)(Cn1cncn1)c1ccc(F)cc1F [VOR, voriconazole, reference compound]	< 0.75 µg/mL
CC(C1CC1)C(O)(Cn1cncn1)c1ccc(-c2ccc([N+](=O)[O-])cc2)cc1 (stereo not drawn) [Compound 6]	≥ 100 µg/mL
CC(C1CC1)C(O)(Cn1cncn1)c1ccc(-c2ccc3ccccc3c2)cc1 (stereo not drawn) [Compound 7]	≥ 100 µg/mL
CC(C)(C)C(=O)C(Oc1ccc(Cl)cc1)n1cncn1 (stereo not drawn) [TDM, reference compound]	≥ 100 µg/mL
CC(C1CC1)C(O)(Cn1cncn1)c1ccc(-c2ccccc2)cc1 (stereo not drawn) [Compound 3]	5 µg/mL

// each listed molecule needs a value for MIC100 (minimum concentration for complete growth inhibition)
1. COc1ccc(-c2ccc(C(O)(Cn3cncn3)C(C)C3CC3)cc2)cc1 (stereo not drawn) [Compound 5]
2. CC(C)(C)C(=O)C(Oc1ccc(-c2ccc(F)cc2)cc1)n1cncn1 (stereo not drawn) [Compound 2]
3. CC(C)(C)C(=O)C(Oc1ccc(-c2ccccc2)cc1)n1cncn1 (stereo not drawn) [Compound 1]

Response:
≥ 100 µg/mL
≥ 100 µg/mL
≥ 100 µg/mL

Prompt: In one line, give reported MIC100 (minimum concentration for complete growth inhibition) of the entry CC(C1CC1)C(O)(Cn1cncn1)c1ccc(-c2ccc(F)cc2)cc1 (stereo not drawn) [Compound 4] .
Response: ≥ 100 µg/mL

====

# protocolText: Cytotoxicity, neutral red uptake assay
# Format: cell-based, human
# experimentalConditions: human; MRC-5 fibroblasts, 24 h exposure, neutral red uptake; ± SD; read-out: Cytotoxicity IC50
observedProperty: IC50 at 24 h (µM)
One number for each entry, in µM.

Prompt: Please supply the value of reported IC50 at 24 h for the item CC(C)(C)C(=O)C(Oc1ccc(Cl)cc1)n1cncn1 (stereo not shown) [TDM, reference compound]
Response: 248

====

# Test system: A. niger (ATCC 9029)
# protocolText: In vitro antifungal activity, broth microdilution (MIC100)
# Type: cell-based, Aspergillus niger
# experimentalConditions: Aspergillus niger, ATCC9029, 30 °C, 48 h, total growth inhibition, read-out: Fungicidal activity MIC100, AN
observedProperty: MIC100 (complete growth inhibition) (µg/mL)
Numbers only, in µg/mL.

CC(C)(C)C(=O)C(Oc1ccc(-c2ccccc2)cc1)n1cncn1 (stereo not shown)	50

Proceed to the following item.
Prompt: Provide only the value of recorded MIC100 (complete growth inhibition) for C[C@@H](c1ncncc1F)[C@](O)(Cn1cncn1)c1ccc(F)cc1F [VOR, voriconazole, reference compound]
Response: 1.25

====

# Test system: A. terreus (M16C)
# protocolText: In vitro antifungal activity, broth microdilution (MIC100)
# Format: cell-based, Aspergillus terreus
# experimentalConditions: Aspergillus terreus, 48 h, read-out: Fungicidal activity MIC100, AT, A. terreus, 30 °C, total growth inhibition
observedProperty: MIC100 (complete growth inhibition)

Answered cases to consult:
CC(C)(C)C(=O)C(Oc1ccc(-c2ccccc2)cc1)n1cncn1 (stereo not drawn)	≥ 100 µg/mL
CC(C1CC1)C(O)(Cn1cncn1)c1ccc(-c2ccccc2)cc1 (stereo not drawn)	≥ 100 µg/mL

For each listed entry, give its MIC100 (complete growth inhibition).
1. C[C@@H](c1ncncc1F)[C@](O)(Cn1cncn1)c1ccc(F)cc1F [VOR, voriconazole, reference compound]
2. CC(C1CC1)C(O)(Cn1cncn1)c1ccc(-c2ccc(F)cc2)cc1 (stereo not drawn)

Response:
1: 6.25 µg/mL; 2: 10 µg/mL

Report MIC100 (complete growth inhibition) for each item below.
1. CC(C1CC1)C(O)(Cn1cncn1)c1ccc(-c2ccc([N+](=O)[O-])cc2)cc1 (stereo not drawn)
2. CC(C1CC1)C(O)(Cn1cncn1)c1ccc(-c2ccc3ccccc3c2)cc1 (stereo not drawn)
3. COc1ccc(-c2ccc(C(O)(Cn3cncn3)C(C)C3CC3)cc2)cc1 (stereo not drawn)

Response:
≥ 100 µg/mL
≥ 100 µg/mL
≥ 100 µg/mL

List reported MIC100 (complete growth inhibition) for each of these molecules:
1. CC(C)(C)C(=O)C(Oc1ccc(-c2ccc(F)cc2)cc1)n1cncn1 (stereo not drawn)
2. CC(C)(C)C(=O)C(Oc1ccc(Cl)cc1)n1cncn1 (stereo not drawn) [TDM, reference compound]

Response:
≥ 100 µg/mL
> 100 µg/mL

====

# protocolText: Cytotoxicity, neutral red uptake assay
# Type: cell-based, human
# experimentalConditions: human
For each entry below, report its IC50 at 24 h value.
Numbers only, in µM.

CC(C)(C)C(=O)C(Oc1ccc(-c2ccccc2)cc1)n1cncn1 (stereo not drawn)	389
CC(C1CC1)C(O)(Cn1cncn1)c1ccc(-c2ccccc2)cc1 (stereo not drawn)	118
CC(C1CC1)C(O)(Cn1cncn1)c1ccc(-c2ccc3ccccc3c2)cc1 (stereo not drawn)	49.1

Dear reader, for each entry below, please note its IC50 at 24 h.
1. CC(C)(C)C(=O)C(Oc1ccc(-c2ccc(F)cc2)cc1)n1cncn1 (stereo not drawn)
2. COc1ccc(-c2ccc(C(O)(Cn3cncn3)C(C)C3CC3)cc2)cc1 (stereo not drawn)
3. CC(C1CC1)C(O)(Cn1cncn1)c1ccc(-c2ccc(F)cc2)cc1 (stereo not drawn)

Response:
1. 90
2. 732
3. 61.1

====

# System: A. niger (ATCC 9029)
# protocolText: In vitro antifungal activity, broth microdilution (MIC100)
# Type: cell-based, Aspergillus niger
# experimentalConditions: Aspergillus niger, ATCC9029, 30 °C, 48 h, total growth inhibition, read-out: Fungicidal activity MIC100, AN
# Experimental: Fungal growth was assessed at six concentrations (3.1–100 μg/mL), using enriched Czapek broth in the presence of triazole 1-8 (Fig. 2). Each treatment was carried out in triplicate. The Minimum Inhibitory Concentration (MIC100) was determined and was defined as the minimum concentration required to inhibit the complete fungal growth inhibition under the conditions of the assay. […] Significant differences were determined by t-Student hypothesis test p, at 95% confidence. […]
Exercise: for every item that follows, state its recorded MIC100 (complete growth inhibition).

Consider the following illustrative entries.
CC(C1CC1)C(O)(Cn1cncn1)c1ccc(-c2ccc(F)cc2)cc1 (centres unmarked)	10 µg/mL
COc1ccc(-c2ccc(C(O)(Cn3cncn3)C(C)C3CC3)cc2)cc1 (centres unmarked)	6.25 µg/mL
CC(C1CC1)C(O)(Cn1cncn1)c1ccc(-c2ccc3ccccc3c2)cc1 (centres unmarked)	≥ 100 µg/mL
CC(C)(C)C(=O)C(Oc1ccc(-c2ccc(F)cc2)cc1)n1cncn1 (centres unmarked)	≥ 100 µg/mL

Prompt: State MIC100 (complete growth inhibition) on A. niger (ATCC 9029). Entry: CC(C1CC1)C(O)(Cn1cncn1)c1ccc(-c2ccccc2)cc1 (centres unmarked)
Response: 3.12 µg/mL
